Test system: 885724-159-R-J1-PDC complex spheroid viability
protocolDetails: Anticancer human tumor 885724-159-R-J1-PDC patient-derived pancreatic adenocarcinoma cell line growth inhibition [GQUAD]
reportedConditions: second compound 3.16 µM; first compound 0.316 µM; hits give low values
Categorize each record by its viability, T/C using class 1 = under 70%, class 2 = from 70% up to 80%, class 3 = 80% and over

- compound: "Cn1ncnc1[C@H]1c2n[nH]c(=O)c3cc(F)cc(c23)N[C@@H]1c1ccc(F)cc1 + Cc1[nH]c2ccc(F)cc2c1-c1nc2c3cccnc3c3ncccc3c2[nH]1"
  discreteLabel: "class 1"
- compound: "CC(C)(O)C1CCC(Nc2ccc3ncc(-c4cccc(C(F)(F)F)c4)n3n2)CC1 (stereo not given) + Cc1cnc(CNC(=O)c2c(=O)c3ccc(N4CCCN(C)CC4)nc3n3c2sc2ccccc23)cn1"
  discreteLabel: "class 1"
- compound: "C=CC(=O)N1CCN(c2nc(=O)n(-c3c(C)ccnc3C(C)C)c3nc(-c4c(O)cccc4F)c(F)cc23)C(C)C1 (stereo not given) + Cc1[nH]c2ccc(F)cc2c1-c1nc2c3cccnc3c3ncccc3c2[nH]1"
  discreteLabel: "class 1"
- compound: "Cc1cccc(N(C)C(=O)C2C(O)CCN2c2nc(C)cc(C(F)(F)F)c2C#N)c1 (stereo not given) + CN(C)c1ccc(Nc2c3ccc(NC(=O)CCN4CCCC4)cc3nc3cc(NC(=O)CCN4CCCC4)ccc23)cc1"
  discreteLabel: "class 3"
- compound: "CC(=O)O[C@H]1C(=O)[C@@]2(C)[C@H]([C@H](OC(=O)c3ccccc3)[C@]3(O)C[C@H](OC(=O)[C@H](O)[C@@H](NC(=O)c4ccccc4)c4ccccc4)C(C)=C1C3(C)C)[C@]1(OC(C)=O)CO[C@@H]1C[C@@H]2O + Cc1cnc(CNC(=O)c2c(=O)c3ccc(N4CCCN(C)CC4)nc3n3c2sc2ccccc23)cn1"
  discreteLabel: "class 3"
- compound: "Cn1ncnc1[C@H]1c2n[nH]c(=O)c3cc(F)cc(c23)N[C@@H]1c1ccc(F)cc1 + Cc1cnc(CNC(=O)c2c(=O)c3ccc(N4CCCN(C)CC4)nc3n3c2sc2ccccc23)cn1"
  discreteLabel: "class 2"
- compound: "O=C(NO)c1cnc(N2CCN(S(=O)(=O)c3ccc4ccccc4c3)CC2)nc1 + CN(C)c1ccc(Nc2c3ccc(NC(=O)CCN4CCCC4)cc3nc3cc(NC(=O)CCN4CCCC4)ccc23)cc1"
  discreteLabel: "class 2"
- compound: "C=CC(=O)N1CCN(c2nc(=O)n(-c3c(C)ccnc3C(C)C)c3nc(-c4c(O)cccc4F)c(F)cc23)C(C)C1 (stereo not given) + Cc1cnc(CNC(=O)c2c(=O)c3ccc(N4CCCN(C)CC4)nc3n3c2sc2ccccc23)cn1"
  discreteLabel: "class 3"

* * *

Test system: 885724-159-R-J1-PDC complex spheroid viability
protocolDetails: Anticancer human tumor 885724-159-R-J1-PDC cell line growth inhibition [GQUAD];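 also: spheroids exposed to agents for seven days before readout; percent of vehicle control viability where 100% = DMSO wells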
reportedConditions: second compound 10 µM; first compound 10 µM; hits give low values
Each item that follows carries a reported viability, T/C.

- molecule: "C=CCn1c(=O)c2cnc(Nc3ccc(N4CCN(C)CC4)cc3)nc2n1-c1cccc(C(C)(C)O)n1 + CN(C)c1ccc(Nc2c3ccc(NC(=O)CCN4CCCC4)cc3nc3cc(NC(=O)CCN4CCCC4)ccc23)cc1"
  viability, T/C [%]: 19.6
- molecule: "COc1ccc([C@@H](O)c2cc(-c3ncnc4cc(N5CCOCC5)ccc34)c(F)cc2Cl)nn1 + Cc1cnc(CNC(=O)c2c(=O)c3ccc(N4CCCN(C)CC4)nc3n3c2sc2ccccc23)cn1"
  viability, T/C [%]: 21.2
- molecule: "COc1cc(C2c3cc4c(cc3C(OC3OC5COC(C)OC5C(O)C3O)C3COC(=O)C23)OCO4)cc(OC)c1O (stereo unspecified) + Cc1[nH]c2ccc(F)cc2c1-c1nc2c3cccnc3c3ncccc3c2[nH]1"
  viability, T/C [%]: 55.4
- molecule: "COc1ncnc(C2CC2)c1-c1ncc2cnn(Cc3ccc(-c4nc(C(F)(F)F)cn4C(C)C)cc3)c2n1 + Cc1cnc(CNC(=O)c2c(=O)c3ccc(N4CCCN(C)CC4)nc3n3c2sc2ccccc23)cn1"
  viability, T/C [%]: 75.8
- molecule: "CCCS(=O)(=O)Nc1ccc(F)c(C(=O)c2c[nH]c3ncc(-c4ccc(Cl)cc4)cc23)c1F + Cc1cnc(CNC(=O)c2c(=O)c3ccc(N4CCCN(C)CC4)nc3n3c2sc2ccccc23)cn1"
  viability, T/C [%]: 50.2
- molecule: "Nc1ccn(C2OC(CO)C(O)C2(F)F)c(=O)n1 (stereo unspecified) + CN(C)c1ccc(Nc2c3ccc(NC(=O)CCN4CCCC4)cc3nc3cc(NC(=O)CCN4CCCC4)ccc23)cc1"
  viability, T/C [%]: 52.5

Just for reference, PubChem BioAssay AID2060502 is where these values come from.
